# System: L6
# TEST_DESCRIPTION: DNDI: Cytotoxicity against L-6 rat myoblasts from skeletal muscle cells
# COND: L6 rat skeletal muscle myoblast cells
PARAMETER: pIC50
Please keep in mind that pIC50 is minus log10 of the molar concentration; only the number is needed.

The cases that follow already have their pIC50 on record.
| MOLECULE | pIC50 |
| --- | --- |
| N#Cc1cccc(N2CCC(NC(c3cccnc3)c3ccc(Cl)cc3F)CC2)c1 (stereo not drawn) | 4.49 |
| O=C(c1ccccc1)N1CCN(C(c2ccc(Cl)cc2)c2cccnc2)CC1 (stereo not drawn) | 4.21 |
| COc1ccccc1N1CCN(C(c2ccc(OC(C)C)cc2)c2cccnc2)CC1 (stereo not drawn) | 4.11 |
| OC(c1ccc(Br)cc1)(c1ccc(C(F)(F)F)cc1)c1cccnc1 (stereo not drawn) | 4.26 |
| CC(C)Oc1ccc(C(O)(c2cccnc2)c2ccc(Cl)cc2F)cc1 (stereo not drawn) | 4.25 |

Lookup: For the molecule shown here, COc1ccccc1N1CCN(C(c2ccc(C(F)(F)F)cc2)c2cnccn2)CC1 (stereo not drawn) , give the reported pIC50.
Found: 4.21

Lookup: Another molecule to look at: CN(C)c1ccc(C(O)(c2ccc(C(F)(F)F)cc2)c2cccnc2)cc1 (stereo not drawn)
Found: 4.23

Lookup: # repeat for CC(C)(C)OC(=O)N1CCN(C(c2ccc(C(F)(F)F)cc2)c2cccnc2)CC1 (stereo not drawn)
Found: 4.25

Lookup: Quick one: Cc1ccc(C(O)(c2ccc(Cl)cc2)c2cccnc2)cc1 (stereo not drawn)
Found: 4.21

Lookup: Try this molecule too: "OC(c1cccnc1)(c1ccc(Cl)cc1F)c1ccc(Cl)cc1F"
Found: 4.25

Lookup: Same lookup for CC(C)(C)C(=O)N1CCN(C(c2cccnc2)c2ccc(Cl)cc2F)CC1 (stereo not drawn) , please.
Found: 4.22

Lookup: Likewise for OC(c1ccc(Cl)cc1)(c1cccnc1)c1ccccc1C(F)(F)F (stereo not drawn) ?
Found: 4.23

* * *

The following compounds are listed with their measured IC50 values.
# TEST_DESCRIPTION: DNDI: Cytotoxicity against L-6 rat myoblasts from skeletal muscle cells
# COND: L6 rat skeletal muscle myoblast cells, IC50

| COMPOUND | IC50 |
| --- | --- |
| OC(c1cccnc1)(c1cncc(F)c1)c1ccc(Cl)cc1F (stereo not given) | > 100 µM |
| O=C(c1cccc(C(O)(c2ccc(Cl)cc2)c2cccnc2)c1)N1CCC(O)CC1 (stereo not given) | > 100 µM |
| O=C(Cc1ccccc1)NC1CCN(C(c2ccc(C(F)(F)F)cc2)c2cnccn2)CC1 (stereo not given) | > 100 µM |

Lookup: Form field: reported IC50 of O=S(=O)(c1ccccc1)N1CCN(C(c2ccc(Cl)cc2)c2cncnc2)CC1 (stereo not given)
Found: > 76.1 µM

Lookup: CC(C)Oc1ccc(C(NC2CCN(C(=O)c3ccccc3)CC2)c2cccnc2)cc1 (stereo not given) ?
Found: > 100 µM

* * *

# TEST_DESCRIPTION: DNDI: Cytotoxicity against L-6 rat myoblasts from skeletal muscle cells
# COND: L6 rat skeletal muscle myoblast cells, IC50
PARAMETER: IC50

The following molecules have reported results that may help.
| MOLECULE | IC50 |
| --- | --- |
| OC(c1ccc(Cl)cc1)(c1cncnc1)c1cccc(F)c1 (configuration not stated) | > 100 µM |
| O=C(c1ccccc1)N1CCC(NC(c2cnccn2)c2ccc(F)cc2F)CC1 (configuration not stated) | > 100 µM |
| Cc1cc(C(=O)N2CCC(NC(c3ccc(C(F)(F)F)cc3)c3cccnc3)CC2)on1 (configuration not stated) | > 100 µM |
| CC(C)(C)OC(=O)NC1CCN(C(c2cnccn2)c2ccc(F)cc2F)CC1 (configuration not stated) | > 100 µM |
| Cc1ncsc1C(=O)N1CC(NC(c2ccc(C(F)(F)F)cc2)c2cccnc2)C1 (configuration not stated) | > 100 µM |

Lookup: Need IC50 of CC(C)Oc1ccc(C(c2cccnc2)N2CCC(NC(=O)OC(C)(C)C)CC2)cc1 (configuration not stated) , thanks.
Found: 56 µM

Lookup: And what about the molecule O=S(=O)(c1ccc(C(F)(F)F)cc1)N1CCC(NC(c2ccc(C(F)(F)F)cc2)c2cnccn2)CC1 (configuration not stated) ?
Found: 40.9 µM

Lookup: Proceed to Nc1nc(N2CCN(C(c3cccnc3)c3ccc(C(F)(F)F)cc3F)CC2)no1 (configuration not stated)
Found: 57.8 µM

Lookup: Please do the same for O=C(C1CCCCC1)N1CCN(C(c2ccc(Cl)cc2)c2cncnc2)CC1 (configuration not stated) as well.
Found: > 100 µM
